Form field: growth (one value per entry).
# System: SK-MEL-5 melanoma
# experimentalProtocol: NCI-60 one-dose screen, 48 h (100 = growth as untreated, 0 = no growth, -100 = all killed)
# setupConditions: 10 µM unless noted
The panel holds about 83,000 compounds, 20% with a hit somewhere; the sample as a whole holds those more often. Calls of active or inactive are those of the source. How the source made its calls: active means growth percent below 10; inactive means the rest.

compound | studyTarget | recordedMeasurement
O=C(O)CCCCCCCCCCN1C(=O)/C(=C2/C(=O)N(CC(=O)O)c3ccc(Br)cc32)SC1=S | SK-MEL-5 melanoma | 81.2% (inactive)

Lookup: Look up growth: `CCCCCCCCn1ccc2cc(NC(=O)CN=[N+]=[N-])ccc21`
Found: 98% (inactive)

Lookup: Look up growth: `Cc1cc(N2CCN(CC(=O)Nc3ccc4c(ccn4Cc4ccccc4)c3)CC2)nc(N2CCOCC2)n1`
Found: 83.1% (inactive)

Lookup: Look up growth: `c1ccc(Nc2nc3c(s2)CCc2c[nH]cc2-3)nc1`
Found: 83.5% (inactive)

Lookup: Look up growth: `CCCCCCCCCCOC(=O)c1nn(C(C)=O)c2cc(C)c(C)cc12`
Found: 99.5% (inactive)

Lookup: Look up growth: `N#CSc1c[nH]c2ccc(/C=C/C(=O)/C=C(O)/C=C/c3ccc4[nH]cc(SC#N)c4c3)cc12`
Found: 41.2% (inactive)
